molecular target: T1, human melanocortin-4 receptor (human, UniProt P32245 1-332); assay: displacement of 125I-NDP-MSH, HEK293 cells expressing hMC4R
T1 construct: whole, on cells; in the thallium flux assay co-expressed with Kir7.1 (M125R); also called hMC4R; wildtype hMC4R
pIC50: −log10 of the molar value. Square brackets hold non-standard residues; d marks the D form.
outcome.measure: pIC50

- binder: "cyclo(PRFFEAF[dP]) [c[Pro-Arg-Phe-Phe-Glu-Ala-Phe-DPro]]"
  outcome.measure: "pIC50"
  reported: 5.60
- binder: "cyclo(PRFFDAF[dP]) [c[Pro-Arg-Phe-Phe-Asp-Ala-Phe-DPro]]"
  outcome.measure: "pIC50"
  reported: 5.44

FYI, the data here is from patent US20200115416A1.
